system: P3 promoter (RNAIII / delta-toxin expression); assay: USA300-P3-Luc reporter screen for inhibition of RNAIII induction (P3 promoter activation by AIP); assay type: cell-based, Staphylococcus aureus; conditions: Staphylococcus aureus; 40 μM compound, 2 hours at 37° C., luminescence; relative to positive control (USA300 inhibitory AIP supernatant); read-out: % Inhibition
Lab note: compare inhibition at 40 µM against 60%. Equal or greater, write T. Smaller, write F.

1. CC(C)c1nc(CN(C)C(=O)N[C@H](C(=O)N[C@@H](Cc2ccccc2)C[C@H](O)[C@H](Cc2ccccc2)NC(=O)OCc2cncs2)C(C)C)cs1 = T

Moving on to the next compound.
Assess whether reported inhibition at 40 µM for "COc1ccc(-c2c(O)c3c(OC)c4c(cc3oc2=O)OC(C)(C)C=C4)cc1" sits at 60% or higher.
T

Origin of the recorded values: patent US12065485B2
